These measurements were taken from PubChem BioAssay (EPA / NIEHS).

read-out: Cyclin D2 (CCND2), CCND2 (gene 894); assay: LTEA_HepaRG_CCND2: Life Technologies and Expression Analysis (LTEA) Assay for Cyclin D2 (CCND2) using HepaRG (AID 2283449); settings: mRNA level, 48 h; actives raise or lower the signal;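 also: CCND2 transcript measured by TaqMan qRT-PCR and normalised to three housekeeping genes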
Active and inactive are the calls of the source. The calls were made as follows: active = hit-call score of the fitted dose curve at least 0.9, where 1 is the maximum; inactive = score below 0.9.
Labels: yes (1) = active, no (0) = inactive

> print(dat)
                  compound.structure.string    group
1                           CCCC(CCC)C(=O)O   no (0)
2  Cc1nc(-c2ccccn2)ncc1C(=O)Nn1cc(C)c2cc(F)ccc21  yes (1)
3  Nc1ccn([C@@H]2O[C@H](CO)[C@@H](O)[C@@H]2O)c(=O)n1   no (0)
4                           CCc1cccc(CC)c1N   no (0)
5                             CCCCCCCCN(C)C   no (0)
